Measured values drawn from patent US20250320253A1 for this set.

Biological target: Plexin-A1 (on Oli-neu cells) (UniProt P70206)
Assay: proximity ligation assay on Oli-neu cells, dose response; inhibition of NRP1/Plexin-A1 interactions
pIC50: −log10 of the molar value.
Measurement Kind: pIC50

* TLPAITGLVGGVGLLLEVIVEVAYEEEEE [GUNGNIR] | 10.13
